experiment: Pharmacokinetics in mouse after p.o. and i.v. administration; assay type: in vivo; conditions: C57BL/6J, mouse, in vivo, po, 10 mg/kg, mouse 10mg/kg p.o.; Mean; read-out: Cmax
readoutKind: Cmax (ng/mL)
Answer format: numeric, ng/mL implied, no suffix.

Value of measured Cmax for the entry `CN(C)CCCCn1c(=O)c2c(nc(Oc3cccc(Cl)c3)n2Cc2ccc(Cl)cc2)n(C)c1=O` : 201

* * *

assay: Pharmacokinetics in mouse after p.o. and i.v. administration; assay type: in vivo; conditions: C57BL/6J, mouse, in vivo, iv, 2 mg/kg, mouse 2mg/kg i.v.; Mean; read-out: CL_obs
readoutKind: clearance
In your response, put the unit directly after the numeric value.

Value of measured clearance for the entry `CN(C)CCCCn1c(=O)c2c(nc(Oc3cccc(Cl)c3)n2Cc2ccc(Cl)cc2)n(C)c1=O` : 65.9 mL/min/kg
